assay-remarks: total protein half-life in vivo (active degradation + dilution); higher = more stable protein
condition-context: E. coli NCM3722 delta-hslV; growth: N-lim chemostat; doubling time 6 h
observable: total protein half-life in vivo (h)
Use h as the unit, but write only the number.

MSERLSITPLGPYIGAQISGADLTRPLSDNQFEQLYHAVLRHQVVFLRDQAITPQQQRALAQRFGELHIHPVYPHAEGVDEIIVLDTHNDNPPDNDNWHTDVTFIETPPAGAILAAKELPSTGGDTLWTSGIAAYEALSVPFRQLLSGLRAEHDFRKSFPEYKYRKTEEEHQRWREAVAKNPPLLHPVVRTHPVSGKQALFVNEGFTTRIVDVSEKESEALLSFLFAHITKPEFQVRWRWQPNDIAIWDNRVTQHYANADYLPQRRIMHRATILGDKPFYRAG :: 2.39

Returns the measured total protein half-life in vivo for the input sequence. Input: MMNPLIIKLGGVLLDSEEALERLFSALVNYRESHQRPLVIVHGGGCVVDELMKGLNLPVKKKNGLRVTPADQIDIITGALAGTANKTLLAWAKKHQIAAVGLFLGDGDSVKVTQLDEELGHVGLAQPGSPKLINSLLENGYLPVVSSIGVTDEGQLMNVNADQAATALAATLGADLILLSDVSGILDGKGQRIAEMTAAKAEQLIEQGIITDGMIVKVNAALDAARTLGRPVDIASWRHAEQLPALFNGMPMGTRILA [P0A6C8]
3.36
